biological target: Vesicular acetylcholine transporter (Rattus norvegicus, UniProt Q62666)
Sequence (Q62666 whole entry): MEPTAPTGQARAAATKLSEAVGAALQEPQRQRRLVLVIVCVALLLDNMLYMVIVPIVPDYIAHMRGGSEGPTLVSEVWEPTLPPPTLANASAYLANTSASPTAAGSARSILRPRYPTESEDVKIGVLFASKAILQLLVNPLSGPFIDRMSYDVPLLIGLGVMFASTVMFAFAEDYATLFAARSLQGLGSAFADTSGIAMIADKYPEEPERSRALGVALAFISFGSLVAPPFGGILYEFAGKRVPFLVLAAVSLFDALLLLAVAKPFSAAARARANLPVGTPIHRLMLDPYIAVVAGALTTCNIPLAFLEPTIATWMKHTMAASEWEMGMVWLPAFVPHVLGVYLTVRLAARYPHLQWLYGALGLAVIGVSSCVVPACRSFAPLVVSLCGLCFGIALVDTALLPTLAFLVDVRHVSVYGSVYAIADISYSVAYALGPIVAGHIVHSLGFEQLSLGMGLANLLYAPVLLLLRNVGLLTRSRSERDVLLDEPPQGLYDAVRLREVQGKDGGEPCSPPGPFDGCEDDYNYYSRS
# maps each entry to its Ki

{"columns": ["MOLECULE", "MEASURED TARGET", "CENSORING SIGN", "Ki [nM]"],
 "data": [
  ["O[C@@H]1CCCC[C@H]1N1CC=C(c2ccccc2)CC1 (racemic)", "Vesicular acetylcholine transporter (Rattus norvegicus, UniProt Q62666)", "=", 439],
  ["O=C(Nc1cccc2c1C[C@@H](O)[C@H](N1CCC(Cc3ccccc3)CC1)C2)c1ccc(F)cc1 (racemic)", "Vesicular acetylcholine transporter (Rattus norvegicus, UniProt Q62666)", ">", 10000],
  ["O=C(Nc1cccc2c1C[C@@H](O)[C@H](N1CCC(c3ccccc3)CC1)C2)c1ccc(F)cc1 (racemic)", "Vesicular acetylcholine transporter (Rattus norvegicus, UniProt Q62666)", "=", 188],
  ["CC(=O)C1(c2ccccc2)CCN([C@@H]2CC[C@H](OCc3ccc(F)cc3)C[C@H]2O)CC1 (racemic)", "Vesicular acetylcholine transporter (Rattus norvegicus, UniProt Q62666)", ">", 10000],
  ["O[C@@H]1C[C@@H](OCc2ccc(F)cc2)CC[C@H]1N1CCC(O)(c2ccccc2)CC1 (racemic)", "Vesicular acetylcholine transporter (Rattus norvegicus, UniProt Q62666)", ">", 10000],
  ["O=C(c1ccc(F)cc1)C1CCN([C@@H]2C[C@H](OCc3ccc(F)cc3)CC[C@H]2O)CC1 (racemic)", "Vesicular acetylcholine transporter (Rattus norvegicus, UniProt Q62666)", "=", 1030],
  ["O[C@@H]1CC=CC[C@H]1N1CCC(c2ccccc2)CC1 (racemic)", "Vesicular acetylcholine transporter (Rattus norvegicus, UniProt Q62666)", "=", 18.4],
  ["Nc1cccc2c1C[C@@H](N1CCC(c3ccccc3)CC1)[C@H](O)C2 (racemic)", "Vesicular acetylcholine transporter (Rattus norvegicus, UniProt Q62666)", "=", 25.1],
  ["O[C@@H]1CC[C@@H](OCCCF)C[C@H]1N1CCC(c2ccccc2)CC1 (racemic)", "Vesicular acetylcholine transporter (Rattus norvegicus, UniProt Q62666)", "=", 47.8],
  ["O[C@@H]1CC[C@@H](OCc2ccc(F)cc2)C[C@H]1N1CCC(Cc2ccccc2)CC1 (racemic)", "Vesicular acetylcholine transporter (Rattus norvegicus, UniProt Q62666)", "=", 110],
  ["O=C(Nc1cccc2c1C[C@@H](N1CCC(Cc3ccccc3)CC1)[C@H](O)C2)c1ccc(F)cc1 (racemic)", "Vesicular acetylcholine transporter (Rattus norvegicus, UniProt Q62666)", "=", 527],
  ["O[C@@H]1CC[C@@H](OCc2ccc(F)cc2)C[C@H]1N1CC=C(c2ccccc2)CC1 (racemic)", "Vesicular acetylcholine transporter (Rattus norvegicus, UniProt Q62666)", "=", 310],
  ["O=C(c1ccc(F)cc1)C1CCN([C@@H]2CCCC[C@H]2O)CC1 (racemic)", "Vesicular acetylcholine transporter (Rattus norvegicus, UniProt Q62666)", "=", 3240],
  ["O=C(Nc1cccc2c1C[C@@H](N1CCC(c3ccccc3)CC1)[C@H](O)C2)c1ccc(F)cc1 (racemic)", "Vesicular acetylcholine transporter (Rattus norvegicus, UniProt Q62666)", "=", 156],
  ["CC(=O)C1(c2ccccc2)CCN([C@@H]2C[C@H](OCc3ccc(F)cc3)CC[C@H]2O)CC1 (racemic)", "Vesicular acetylcholine transporter (Rattus norvegicus, UniProt Q62666)", "=", 260],
  ["O[C@@H]1Cc2ccccc2C[C@H]1N1CCC(c2ccncc2)CC1 (racemic)", "Vesicular acetylcholine transporter (Rattus norvegicus, UniProt Q62666)", "=", 19.3],
  ["O=C(c1ccc(F)cc1)C1CCN([C@@H]2Cc3ccccc3C[C@H]2O)CC1 (racemic)", "Vesicular acetylcholine transporter (Rattus norvegicus, UniProt Q62666)", "=", 24.4],
  ["CCN(CCCc1ccccc1)[C@@H]1C[C@H](OCc2ccc(F)cc2)CC[C@H]1O (racemic)", "Vesicular acetylcholine transporter (Rattus norvegicus, UniProt Q62666)", "=", 1610],
  ["O[C@@H]1Cc2ccccc2C[C@H]1N1CCC(O)(c2ccccc2)CC1 (racemic)", "Vesicular acetylcholine transporter (Rattus norvegicus, UniProt Q62666)", "=", 11.5],
  ["O[C@@H]1C[C@@H](OCc2ccc(F)cc2)CC[C@H]1N1CCC(c2ccccc2)(c2ccccc2)CC1 (racemic)", "Vesicular acetylcholine transporter (Rattus norvegicus, UniProt Q62666)", "=", 2730],
  ["O[C@@H]1C[C@@H](OCc2ccc(F)cc2)CC[C@H]1N1CC=C(c2ccccc2)CC1 (racemic)", "Vesicular acetylcholine transporter (Rattus norvegicus, UniProt Q62666)", "=", 2830],
  ["O[C@@H]1CCCC[C@H]1N1CCC(O)(c2ccccc2)CC1 (racemic)", "Vesicular acetylcholine transporter (Rattus norvegicus, UniProt Q62666)", "=", 1000],
  ["CCN(CCCc1ccccc1)[C@@H]1CCCC[C@H]1O (racemic)", "Vesicular acetylcholine transporter (Rattus norvegicus, UniProt Q62666)", ">", 10000],
  ["CCN(CCCc1ccccc1)[C@@H]1CC[C@H](OCc2ccc(F)cc2)C[C@H]1O (racemic)", "Vesicular acetylcholine transporter (Rattus norvegicus, UniProt Q62666)", "=", 1930],
  ["CC(=O)C1(c2ccccc2)CCN([C@@H]2CCCC[C@H]2O)CC1 (racemic)", "Vesicular acetylcholine transporter (Rattus norvegicus, UniProt Q62666)", "=", 1460],
  ["O[C@@H]1CCCC[C@H]1N1CCC(Cc2ccccc2)CC1 (racemic)", "Vesicular acetylcholine transporter (Rattus norvegicus, UniProt Q62666)", "=", 647],
  ["O[C@@H]1CC[C@@H](OCc2ccc(F)cc2)C[C@H]1N1CCC(c2ccccc2)CC1 (racemic)", "Vesicular acetylcholine transporter (Rattus norvegicus, UniProt Q62666)", "=", 25.1],
  ["O[C@@H]1CC[C@@H](OCc2ccc(F)cc2)C[C@H]1N1CCC(O)(c2ccccc2)CC1 (racemic)", "Vesicular acetylcholine transporter (Rattus norvegicus, UniProt Q62666)", "=", 316]
]}
